target: T1, γδ T cell receptor on human γδ T cells (human); test: flow cytometry DRC binding 37 C, human γδ T cells
T1 construct: whole, on cells; Target is the γδ TCR on a mixed population of human γδ T cells; also called AG000003021 (γδ T cells)
readout-kind: Max. Activity (fold over background)
Kindly provide the numeric value in fold over background only, without the unit symbol.

Example cases with answers are listed next.
Req: Which measured Max. Activity value corresponds to VG9B392 (antibody, human IgG1, lambda, V domains shown, IgG1, lambda; specificity column: g/d constant) VH: QVQLVQSGAEVKRPGASAKVSCKTSGYTFTGYYIHWVRQAPGQGLEWMGWINPNSGYTNSAQKFQGRVSMTRDTSISTVYMELSRLRSDDTAVYYCAREDDAFDIWGQGTLVTVSS VL: SSELTQDPAVSVALGQTVRITCQGDSLRSYYARWYQQKPGQAPVLVIYGKNNRPSGIPDRFSGSSSGDTASLTITGALAEDEADYYCNSRDNSGNHVVFGGGTKVTVLG ?
Resp: 1250

Req: Which measured Max. Activity value corresponds to VG9B77 (antibody, human IgG1, kappa, V domains shown, IgG1, kappa; specificity column: g/d constant) VH: EVQLVESGAEVMKPGSSVKVSCKASGGTFSSYAISWVRQAPEQGLEWMGGIIPFFGTADYAQKFQGRVTITADKSTNTAYMELTSLRSEDTAVYYCATATVTTDYYYGMDVWGQGTMVTVSS VL: EIVMTQSPLFSPVTLGQPASISCRSSQSLVHSDGNTYLSWLQQRPGQPPRLLIYEISNRFTGVPDRFSGSGAGTDFTLKISRVEAEDVGVYYCMQARQFPLTFGGGTKVEIKR ?
Resp: 772

***
Req: Which measured Max. Activity value corresponds to VG9B369 (antibody, human IgG1, kappa, V domains shown, IgG1, kappa; specificity column: g/d constant) VH: EVQLLESGPTLVKPTQTLTLTCTFSGFSLSTIGVGVGWIRQPPGKALEWLSLIYWNDDKRYNPSLKSRLTITKDTSKNQVVLTMTNMDPVDTATYYCAHSHDWVHAFDIWGQGTMVTVSS VL: DIVMTQSPSSLSASVGDRVTITCQASQDISHYLNWYQQKPGKAPKFLIYDASNLDTGVPSRFSGSGSGTDFTFTISSLQPEDIATYYCQQYDNFPLTFGGGTKVEIKR ?
Resp: 2430

Source of measurements: patent US20220125947A1
